biological target: T1, TCE-13 (anti-CD3 scFv N103A; anti-TROP2 wt); test: competition ELISA, TCE on captured CD3
T1 construct: scFv on the Fab heavy chain; also called TCE-13 (N103A)
pIC50: −log10 of the molar value. Where no end group is shown, it is not given here.
recordedEndpoint: pIC50

1. VYCGPEFDESVGCA (cysteine pairing not given here; also: biotinylated, site not given here, mask peptide for the CD3 scFv) [Peptide-73]: 6.09

// data source = patent US20230357429A1
